Data provenance: paper PMC4336329

measurement target: human ether-à-go-go-related gene (hERG) potassium channel (human, UniProt Q12809);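 further: peak tail current of the secondary pulse compared with the same well before compound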
Sequence (Q12809 whole entry, looked up): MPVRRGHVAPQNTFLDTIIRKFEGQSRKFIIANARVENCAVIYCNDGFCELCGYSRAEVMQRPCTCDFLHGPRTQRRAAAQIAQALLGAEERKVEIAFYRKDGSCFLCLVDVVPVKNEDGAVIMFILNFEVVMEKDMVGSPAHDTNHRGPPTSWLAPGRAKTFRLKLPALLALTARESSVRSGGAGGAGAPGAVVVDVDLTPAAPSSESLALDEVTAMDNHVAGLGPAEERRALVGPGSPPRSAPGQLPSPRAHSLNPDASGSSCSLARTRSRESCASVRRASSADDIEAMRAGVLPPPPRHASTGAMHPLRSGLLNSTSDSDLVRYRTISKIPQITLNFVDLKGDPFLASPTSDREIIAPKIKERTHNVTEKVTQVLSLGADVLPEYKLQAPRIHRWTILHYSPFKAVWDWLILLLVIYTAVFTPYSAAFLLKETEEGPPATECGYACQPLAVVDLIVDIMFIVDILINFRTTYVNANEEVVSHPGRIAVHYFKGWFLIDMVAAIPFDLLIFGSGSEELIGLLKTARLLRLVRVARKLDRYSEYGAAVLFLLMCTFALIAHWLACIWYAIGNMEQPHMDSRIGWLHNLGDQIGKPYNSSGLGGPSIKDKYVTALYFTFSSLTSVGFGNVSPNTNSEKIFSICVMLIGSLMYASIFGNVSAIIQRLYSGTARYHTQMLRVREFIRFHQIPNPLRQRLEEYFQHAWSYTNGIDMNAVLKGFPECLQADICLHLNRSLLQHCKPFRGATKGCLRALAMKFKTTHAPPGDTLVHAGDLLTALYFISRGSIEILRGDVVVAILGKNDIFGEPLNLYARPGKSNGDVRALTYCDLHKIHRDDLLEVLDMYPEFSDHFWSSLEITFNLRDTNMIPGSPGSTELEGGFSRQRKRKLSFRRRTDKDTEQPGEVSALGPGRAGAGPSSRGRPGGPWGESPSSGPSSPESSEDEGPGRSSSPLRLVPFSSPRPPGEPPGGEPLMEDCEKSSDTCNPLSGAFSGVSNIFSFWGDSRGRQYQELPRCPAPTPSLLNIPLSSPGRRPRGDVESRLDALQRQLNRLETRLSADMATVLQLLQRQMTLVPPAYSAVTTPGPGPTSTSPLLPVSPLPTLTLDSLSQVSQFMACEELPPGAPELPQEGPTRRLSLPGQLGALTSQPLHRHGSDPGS
assay explanation: primary screen, population patch clamp on CHO cells stably expressing hERG; higher = less effect of the substance
Out of some 310,000 compounds screened, about 14,000 (4.5%) showed an effect of 50% or more. The effect is printed as a negative number. For the sample, strong results were picked, then their nearest neighbours and some compounds at random.
property: hERG current change (%, negative = inhibition) at 10uM (%)
One number for each entry, in %.

INSERT INTO measurements (compound, value_observed) VALUES
  ('COc1ccc(C/C(C)=N/NC(=O)c2ccncc2)cc1', -7.41),
  ('CCOC(=O)N1CCC(n2c(SCC(=O)NCc3ccccc3)nc3ccccc3c2=O)CC1', -46.6),
  ('O=C(/C(=C/O)N=Nc1ccccc1)c1ccncc1', -12.1),
  ('O=C(Nc1nnc(Cc2ccccc2)s1)Nc1ccccc1F', 11.1),
  ('O=C(NC1CCCCCCC1)c1ccc(F)cc1', 4.61);

I would be grateful if you could provide hERG current change (%, negative = inhibition) at 10uM for each of the following entries.
1. O=C1CCCC2=C1C(c1ccc(O)c(Br)c1)C1=C(CCCC1=O)N2c1ccccc1
2. CCN(CC)C(=O)c1sc(NC(=O)Cc2cccs2)c(C#N)c1C
3. Cn1c2c(c(=O)c3ccccc31)CCCC2
4. Cc1ccc(S(=O)(=O)c2nnn3c2nc(N2CCOCC2)c2ccccc23)c(C)c1
5. CCCN1CCN(C(=O)CCS(=O)(=O)c2cc3c(cc2Cl)NC(=O)CO3)CC1
6. CCOC(=O)C1CCCN(c2c(N3CCN(c4ccccn4)CC3)c(=O)c2=O)C1 (stereo not drawn)
7. CCOC(=O)N1CCC(n2c(SCC(=O)N3CCCC3)nc3ccccc3c2=O)CC1

RESULT:
1: -33; 2: -6.24; 3: -4.88; 4: -31.3; 5: -48; 6: -55.5; 7: -20.9

Hi! Can you tell me hERG current change (%, negative = inhibition) at 10uM for each of these compounds?
1. Cc1cc2c(sc3c(C)ccc(C)c32)c(C)n1.Cl
2. CCOC(=O)C(C)/C(C)=N/NC(N)=S (stereo not drawn)

RESULT:
[3.48, 14.4]

State recorded hERG current change (%, negative = inhibition) at 10uM for all listed compounds.
1. COc1ccc(/C=C/C(=O)NCc2cn(C)nc2C)cc1COc1ccc(Br)cc1
2. O=C(CC1C(=O)NCCN1C(=S)Nc1ccccc1)Nc1ccc2c(c1)OCCO2 (stereo not drawn)
3. Cc1ccc(-c2csc3ncn(CC(=O)N4CCOCC4)c(=O)c23)cc1C
4. COc1ccc(Br)c(C(=O)NNC(=O)c2ccc(NS(=O)(=O)c3cccs3)cc2)c1
5. Cc1ccc(NS(=O)(=O)c2ccc(C(=O)NNC(=O)c3ccccc3O)cc2)cc1
6. CCOC(=O)C1CCCN(c2c(N3CCC(N4CCCCC4)CC3)c(=O)c2=O)C1 (stereo not drawn)

RESULT:
7.33
-15.2
-5.43
12.6
0.906
-0.665

List the reported hERG current change (%, negative = inhibition) at 10uM of each compound below.
1. CCOC(=O)N1CCC(n2c(SCC(=O)N3CCC(C)CC3)nc3ccccc3c2=O)CC1
2. BrC(=C\c1ccccc1)/C=N/Nc1ccc2nncn2n1
3. Clc1ccc(CN2CCCCCC2)cc1Cl
4. CC1=CN2C(=N)/C(=C/c3ccc(Sc4ccc(C)cc4)o3)C(=O)N=C2S1

RESULT:
1: -47.9; 2: -21.6; 3: -7.66; 4: 10.1
